# Test system: IGROV1 ovarian
# experimentSummary: NCI-60 one-dose screen, 48 h
# conditionParameters: 10 µM
Compounds without any hit were thinned out: in the full panel of roughly 83,000, 20% have a hit. The source made the active and inactive calls. How the source made its calls: active means growth percent below 10; inactive means the rest.
Choose one outcome from this list and give only that: true (1) = active, false (0) = inactive

Please review the following examples before continuing.
* CCCCCCCCCCCCCCCCCC[n+]1ccc2c(C)c3c(c(C)c2c1)c1cc(O)ccc1n3CC | true (1)
* Cc1ccc(C2=NN(c3ccc(S(C)(=O)=O)cc3)C(=O)CC2)cc1 | false (0)
* CC(C)(C)OC(=O)N1CCc2c(sc3ncnc(N/N=C/c4ccccc4Br)c23)C1 | false (0)
* COc1cc2nc(SCC(=O)Nc3cc(OC)c(OC)c(OC)c3)n(Cc3ccccc3)c(=O)c2cc1OC | false (0)
* COc1ccc(CCN2CCC(Nc3nc4ccccc4n3Cc3ccc(F)cc3)CC2)cc1 | false (0)
* NC1=NC(c2ccc(Cl)cc2)C2=C(N1)/C(=C/c1ccc(Cl)cc1)CCC2 (stereo unspecified) | false (0)
* CN1C(=O)C2(Nc3cc(Cl)ccc3S2)c2cc(Cl)ccc21 (stereo unspecified) | false (0)
* NS(=O)(=O)c1ccc(N2N=C(c3ccccc3)CCC2=O)cc1 | false (0)

## Task Please share the test call associated with O=C(Nc1ccc(NS(=O)(=O)c2ccc(F)cc2)cc1)C12CC3CC(CC(C3)C1)C2 .
## Result false (0)

## Task Each molecule tested received a call. Report the one for C1CN(CC2CCC(CN3CCOCC3)O2)CCO1 (stereo unspecified) .
## Result false (0)

## Task I would be grateful if you could indicate the recorded call for CC(C)(C)c1ccc(S(=O)(=O)N[C@H]2CC[C@H]3[C@@H]4CCc5cc(O)ccc5[C@H]4CC[C@]23C)cc1 .
## Result false (0)

## Task Tell me the assay call for CCC1NC(=O)c2cc(S(N)(=O)=O)c(Cl)cc2N1 (stereo unspecified) please.
## Result false (0)

## Task Kindly provide the recorded test outcome for the following molecule: Clc1nc2ccc(Br)cc2cc1-c1nc2ccccc2[nH]1
## Result false (0)

## Task What is the recorded call for this molecule in the test? CCc1c2c(nc3ccc(OC(=O)N4CCC(N5CCCCC5)CC4)cc13)-c1cc3c(c(=O)n1C2)COC(=O)[C@]3(O)CC
## Result false (0)

## Task Recorded test outcome, item O=C(CCCCNC(=O)c1nc(-c2ccccc2)n(-c2ccccc2)n1)NO
## Result false (0)

## Task Outcome? O=C(Nc1ccc(OS(=O)(=O)c2ccccc2)cc1)C1CCCCC1
## Result false (0)

## Task Please indicate how the test categorized C=CCn1c(SCC(=O)Nc2ccc(C(=O)/C=C/c3ccc(OC)cc3)cc2)nnc1-c1ccc(OC)c(OC)c1 .
## Result false (0)

###

# Test system: HT29 colon
# experimentSummary: NCI-60 one-dose screen, 48 h (100 = growth as untreated, 0 = no growth, -100 = all killed)
# conditionParameters: 10 µM
About 83,000 compounds went through this panel and 20% of them were active in at least one assay; those are over-represented in the sample as a whole.
I'd appreciate it if you marked entries MET when growth is lower than 30% and NOT MET when it is not.

- CS(=O)(=O)c1nccc(-c2c(-c3cccc(O)c3)nc3sccn23)n1: NOT MET

## Task Is it true that growth reported for COc1ccc(/C=C/c2nnc(/C=C/c3ccc(OC)c(OC)c3)o2)cc1OC is less than 30%?
## Result MET

## Task Hello, I'm reviewing records and need to know if growth of O=C(N/N=C/c1ccc(Cl)cc1)c1ccccc1Nc1cccc(C(F)(F)F)c1 is below 30%. Could you check?
## Result NOT MET

## Task Say whether its growth is strictly beneath 30%. Entry: O=C(CCCCNC(=O)c1nc(-c2ccccc2)n(-c2ccccc2)n1)NO
## Result NOT MET
